- methodNotes: Plasma pharmacokinetics of momelotinib and M-21
- Type: in vivo, human
- details: human, plasma, oral, Cmax, mean (%CV), momelotinib in plasma, day 15 of cycle 1; TI: momelotinib 150 mg b.i.d. with trametinib 1.5 mg q.d.
attributeMeasured: Cmax (ng/mL)
Please respond with the number in ng/mL and leave the unit unwritten.

# molecule N#CCNC(=O)c1ccc(-c2ccnc(Nc3ccc(N4CCOCC4)cc3)n2)cc1 [Momelotinib, momelotinib] ; its Cmax = 359

###

- methodNotes: Plasma pharmacokinetics of momelotinib and M-21
- Format: in vivo, human
- details: human, plasma, oral, Cmax, mean (%CV), momelotinib in plasma, day 15 of cycle 1; M1: momelotinib 100 mg q.d. with trametinib 1.0 mg q.d.
attributeMeasured: Cmax (ng/mL)
Please respond with the number in ng/mL and leave the unit unwritten.

# molecule N#CCNC(=O)c1ccc(-c2ccnc(Nc3ccc(N4CCOCC4)cc3)n2)cc1 [Momelotinib, momelotinib] ; its Cmax = 136

###

- methodNotes: Plasma pharmacokinetics of momelotinib and M-21
- Type: in vivo, human
- details: human, plasma, oral, t1/2, median (Q1, Q3), momelotinib in plasma, day 15 of cycle 1; M2A: momelotinib 200 mg q.d. with trametinib 1.0 mg q.d.
attributeMeasured: half-life (h)
Please respond with the number in h and leave the unit unwritten.

# molecule N#CCNC(=O)c1ccc(-c2ccnc(Nc3ccc(N4CCOCC4)cc3)n2)cc1 ; its half-life = 8.7

###

- methodNotes: Plasma pharmacokinetics of momelotinib and M-21
- Format: in vivo, human
- details: human, plasma, oral, t1/2, median (Q1, Q3), momelotinib in plasma, day 15 of cycle 1; M1: momelotinib 100 mg q.d. with trametinib 1.0 mg q.d.
attributeMeasured: half-life (h)
Please respond with the number in h and leave the unit unwritten.

# compound N#CCNC(=O)c1ccc(-c2ccnc(Nc3ccc(N4CCOCC4)cc3)n2)cc1 ; its half-life = 6.9

###

- methodNotes: Plasma pharmacokinetics of momelotinib and M-21
- Format: in vivo, human
- details: human, plasma, oral, Tmax, median (Q1, Q3), momelotinib in plasma, day 15 of cycle 1; M1: momelotinib 100 mg q.d. with trametinib 1.0 mg q.d.
attributeMeasured: Tmax (h)
Please respond with the number in h and leave the unit unwritten.

# molecule N#CCNC(=O)c1ccc(-c2ccnc(Nc3ccc(N4CCOCC4)cc3)n2)cc1 [Momelotinib, momelotinib] ; its Tmax = 1.9

###

- methodNotes: Plasma pharmacokinetics of momelotinib and M-21
- Type: in vivo, human
- details: human, plasma, oral, Cmax, mean (%CV), momelotinib in plasma, day 15 of cycle 1; M2A: momelotinib 200 mg q.d. with trametinib 1.0 mg q.d.
attributeMeasured: Cmax (ng/mL)
Please respond with the number in ng/mL and leave the unit unwritten.

# molecule N#CCNC(=O)c1ccc(-c2ccnc(Nc3ccc(N4CCOCC4)cc3)n2)cc1 ; its Cmax = 572

###

- methodNotes: Plasma pharmacokinetics of momelotinib and M-21
- Type: in vivo, human
- details: human, plasma, oral, Cmax, mean (%CV), momelotinib in plasma, day 15 of cycle 1; M3: momelotinib 150 mg b.i.d. with trametinib 1.0 mg q.d.
attributeMeasured: Cmax (ng/mL)
Please respond with the number in ng/mL and leave the unit unwritten.

# molecule N#CCNC(=O)c1ccc(-c2ccnc(Nc3ccc(N4CCOCC4)cc3)n2)cc1 [Momelotinib, momelotinib] ; its Cmax = 290

###

- methodNotes: Plasma pharmacokinetics of momelotinib and M-21
- Format: in vivo, human
- details: human, plasma, oral, Tmax, median (Q1, Q3), momelotinib in plasma, day 15 of cycle 1; M2B: momelotinib 100 mg b.i.d. with trametinib 1.0 mg q.d.
attributeMeasured: Tmax (min)
Please respond with the number in min and leave the unit unwritten.

# compound N#CCNC(=O)c1ccc(-c2ccnc(Nc3ccc(N4CCOCC4)cc3)n2)cc1 ; its Tmax = 54
